Tested on: Haemophilus influenzae
Assay: Antibacterial activity against Haemophilus influenzae ATCC 49247 incubated for 24 hrs by broth microdilution method
Type: functional
Details: ATCC 49247, 24 h
Reported Metric: MIC

Before answering, review these 9 worked examples.
Line Notation: CCNC(=O)Nc1cc(-c2cccnc2)c(C(=O)Nc2nccs2)cn1
Assayed Target: Haemophilus influenzae
MIC: > 64 µg/mL
--
Line Notation: CCNC(=O)Nc1cc(-c2cccnc2)c(C(=O)Nc2cccc(C)c2)cn1
Assayed Target: Haemophilus influenzae
MIC: > 64 µg/mL
--
Line Notation: CCNC(=O)Nc1ccc(C(=O)Nc2cccnc2)cn1
Assayed Target: Haemophilus influenzae
MIC: > 256 µg/mL
--
Line Notation: CCNC(=O)Nc1cc(Nc2ccccc2)c(C(=O)Nc2ccc(-n3cncn3)nc2)cn1
Assayed Target: Haemophilus influenzae
MIC: > 64 µg/mL
--
Line Notation: CCNC(=O)Nc1ccc(C(=O)Nc2ncc(C(=O)O)s2)cn1
Assayed Target: Haemophilus influenzae
MIC: > 64 µg/mL
--
Line Notation: CCNC(=O)Nc1ccc(C(=O)Nc2cccc(CC)c2)cn1
Assayed Target: Haemophilus influenzae
MIC: > 256 µg/mL
--
Line Notation: CCNC(=O)Nc1ccc(C(=O)Nc2cc(Cl)ccc2C)cn1
Assayed Target: Haemophilus influenzae
MIC: > 64 µg/mL
--
Line Notation: CCNC(=O)Nc1cc(-n2ccnc2)c(C(=O)Nc2cccc(Cl)c2)cn1
Assayed Target: Haemophilus influenzae
MIC: > 64 µg/mL
--
Line Notation: CCNC(=O)Nc1cc(Nc2ccccc2)c(C(=O)Nc2ccc(N3CCOCC3)nc2)cn1
Assayed Target: Haemophilus influenzae
MIC: > 64 µg/mL

Switching to the query record.
The measured MIC associated with CCNC(=O)Nc1cc(Nc2ccccc2)c(C(=O)Nc2ccccc2)cn1 reads > 64 µg/mL

----------
Test system: Streptococcus pyogenes
Test: Antibacterial activity against Streptococcus pyogenes ATCC 51339 incubated for 24 hrs by broth microdilution method
Format: functional
Conditions: ATCC 51339, 24 h
Reported Metric: MIC (µg/mL)

Before answering, review these 6 worked examples.
Line Notation: CCNC(=O)Nc1ccc(C(=O)Nc2cccc(C#N)c2)cn1
MIC / µg/mL: 32

Line Notation: CCNC(=O)Nc1cc(Nc2ccccc2)c(C(=O)Nc2cccnc2)cn1
MIC / µg/mL: 1

Line Notation: CCNC(=O)Nc1cc(Nc2ccccc2)c(C(=O)Nc2ccc(N3CCOCC3)nc2)cn1
MIC / µg/mL: 1

Line Notation: CCNC(=O)Nc1cc(-c2cccnc2)c(C(=O)Nc2cccnc2)cn1
MIC / µg/mL: 64

Line Notation: CCNC(=O)Nc1ccc(C(=O)Nc2cccc(F)c2)cn1
MIC / µg/mL: 32

Line Notation: CCNC(=O)Nc1ccc(C(=O)Nc2ccc(OC)c(OC)c2)cn1
MIC / µg/mL: 32

1 = CCNC(=O)Nc1cc(Nc2cccnc2)c(C(=O)Nc2cccnc2)cn1
2 = CCNC(=O)Nc1cc(-c2cccnc2)c(C(=O)Nc2cccc(Cl)c2)cn1
3 = CCNC(=O)Nc1cc(Nc2cccc(C)c2)c(C(=O)Nc2cccc(C)c2)cn1
4 = CCNC(=O)Nc1cc(NCc2cccnc2)c(C(=O)Nc2ccccc2)cn1
Ask | // ranking: key=MIC, reverse=True Respond with an ordered listing of the labels, as requested.
Reply | 2, 3, 4, 1

----------
Target: DNA gyrase (Escherichia coli, UniProt P0AES4+P0AES6)
Assay: Inhibition of Escherichia coli GyrB A2B2 subunits assessed reduction in DNA supercoiling activity by malachite green dye based by spectrophotometry
Assay type: protein-complex assay
Reported Metric: IC50 (nM)

Before answering, review these 10 worked examples.
Line Notation: CCNC(=O)Nc1cc(Nc2ccccc2)c(C(=O)Nc2cccc(Cl)c2)cn1
IC50 (nM): 150
--
Line Notation: CCNC(=O)Nc1cc(NCc2cccnc2)c(C(=O)Nc2cccnc2)cn1
IC50 (nM): 660
--
Line Notation: CCNC(=O)Nc1ccc(C(=O)Nc2cccc(C)c2)cn1
IC50 (nM): 3400
--
Line Notation: CCNC(=O)Nc1cc(-n2cccn2)c(C(=O)Nc2cccc(Cl)c2)cn1
IC50 (nM): 2960
--
Line Notation: CCNC(=O)Nc1cc(Nc2ccc(O)cc2)c(C(=O)Nc2cccnc2)cn1
IC50 (nM): 28
--
Line Notation: CCNC(=O)Nc1cc(Oc2ccccc2)c(C(=O)Nc2ccccc2)cn1
IC50 (nM): 4900
--
Line Notation: CCNC(=O)Nc1ccc(C(=O)NC2CCCCC2)cn1
IC50 (nM): 23100
--
Line Notation: CCNC(=O)Nc1cc(-c2cccnc2)c(C(=O)Nc2cccc(C)c2)cn1
IC50 (nM): 7270
--
Line Notation: CCNC(=O)Nc1cc(Nc2ccccc2)c(C(=O)Nc2ccc(N3CCOCC3)nc2)cn1
IC50 (nM): 110
--
Line Notation: CCNC(=O)Nc1cc(Nc2ccccc2)c(C(=O)Nc2cccnc2)cn1
IC50 (nM): 170

I = CCNC(=O)Nc1ccc(C(=O)Nc2cccnc2)cn1
II = CCNC(=O)Nc1cc(Nc2ccccc2)c(C(=O)Nc2ccc(-n3cncn3)nc2)cn1
III = CCNC(=O)Nc1ccc(C(=O)Nc2ccccc2Cl)cn1
IV = CCNC(=O)Nc1ccc(C(=O)Nc2nccs2)cn1
Ask | // ranking: key=IC50, reverse=True Respond with an ordered listing of the labels, as requested.
Reply | I, III, IV, II

----------
Test system: Staphylococcus aureus
Test: Antibacterial activity against Staphylococcus aureus ATCC 29213 incubated for 24 hrs by broth microdilution method
Assay type: functional
Conditions: ATCC 29213, 24 h
Reported Metric: MIC

Before answering, review these 2 worked examples.
Line Notation: CCNC(=O)Nc1cc(Nc2ccccc2)c(C(=O)Nc2ccc(-n3cncn3)nc2)cn1
Reported Metric: MIC
Result: > 16 µg/mL
--
Line Notation: CCNC(=O)Nc1cc(NCc2cccnc2)c(C(=O)Nc2cccnc2)cn1
Reported Metric: MIC
Result: > 64 µg/mL

Switching to the query record.
The measured MIC associated with CCNC(=O)Nc1ccc(C(=O)Nc2ccc(OC)c(OC)c2)cn1 reads > 64 µg/mL

----------
Test system: Streptococcus pyogenes
Assay: Antibacterial activity against Streptococcus pyogenes ATCC 51339 incubated for 24 hrs by broth microdilution method
Format: functional
Conditions: ATCC 51339, 24 h
Reported Metric: MIC

Line Notation: CCNC(=O)Nc1ccc(C(=O)Nc2ccc3c(C)cc(=O)oc3c2)cn1
Result: > 64 µg/mL

The measured MIC associated with CCNC(=O)Nc1ccc(C(=O)Nc2cccc(C(N)=O)c2)cn1 reads > 256 µg/mL

----------
Test system: Streptococcus pyogenes
Assay: Antibacterial activity against Streptococcus pyogenes ATCC 51339 incubated for 24 hrs by broth microdilution method
Format: functional
Conditions: ATCC 51339, 24 h
Reported Metric: MIC

Before answering, review these 3 worked examples.
Line Notation: CCNC(=O)Nc1ccc(C(=O)Nc2cc(Cl)ccc2C)cn1
MIC: > 64 µg/mL
//
Line Notation: CCNC(=O)Nc1cc(Nc2cccc(C)c2)c(C(=O)Nc2nccs2)cn1
MIC: > 64 µg/mL
//
Line Notation: CCNC(=O)Nc1cc(N2CCN(C)CC2)c(C(=O)Nc2cccc(C)c2)cn1
MIC: > 64 µg/mL

The measured MIC associated with CCNC(=O)Nc1cc(-c2cccnc2)c(C(=O)Nc2cccc(C)c2)cn1 reads > 64 µg/mL

The measured MIC associated with CCNC(=O)Nc1cc(N2CCN(C)CC2)c(C(=O)Nc2cccc(Cl)c2)cn1 reads > 64 µg/mL

The measured MIC associated with CCNC(=O)Nc1ccc(C(=O)NC2CCCCC2)cn1 reads > 64 µg/mL

----------
Tested on: Streptococcus pyogenes
Experiment: Antibacterial activity against Streptococcus pyogenes ATCC 51339 incubated for 24 hrs by broth microdilution method
Assay type: functional
Details: ATCC 51339, 24 h
Below, each entry is listed with its recorded MIC.

Line Notation: CCNC(=O)Nc1cc(N2CCN(C)CC2)c(C(=O)Nc2cccnc2)cn1
MIC: > 64 µg/mL
//
Line Notation: CCNC(=O)Nc1cc(Oc2ccccc2)c(C(=O)Nc2ccccc2)cn1
MIC: > 16 µg/mL
//
Line Notation: CCNC(=O)Nc1ccc(C(=O)Nc2ccnc(C)c2)cn1
MIC: > 64 µg/mL

The measured MIC associated with CCNC(=O)Nc1cc(Nc2ccccc2)c(C(=O)Nc2ccc(-n3cncn3)nc2)cn1 reads > 16 µg/mL

The measured MIC associated with CCNC(=O)Nc1ccc(C(=O)Nc2ccc(Cl)cc2)cn1 reads > 64 µg/mL

The measured MIC associated with CCNC(=O)Nc1ccc(C(=O)Nc2ncc(C(=O)O)s2)cn1 reads > 64 µg/mL

The measured MIC associated with CCNC(=O)Nc1cc(Nc2ccccc2)c(C(=O)Nc2ccc(NC(C)=O)nc2)cn1 reads 0.5 µg/mL

The measured MIC associated with CCNC(=O)Nc1ccc(C(=O)Nc2cccc(C)c2)cn1 reads 32 µg/mL

The measured MIC associated with CCNC(=O)Nc1cc(-n2cccn2)c(C(=O)Nc2cccc(Cl)c2)cn1 reads 4 µg/mL

The reported measurements were obtained from ChEMBL document CHEMBL3351278.
